Target: Phosphatidylinositol 4,5-bisphosphate 3-kinase catalytic subunit alpha isoform (Homo sapiens, UniProt P42336)
Sequence (P42336 whole entry, canonical isoform): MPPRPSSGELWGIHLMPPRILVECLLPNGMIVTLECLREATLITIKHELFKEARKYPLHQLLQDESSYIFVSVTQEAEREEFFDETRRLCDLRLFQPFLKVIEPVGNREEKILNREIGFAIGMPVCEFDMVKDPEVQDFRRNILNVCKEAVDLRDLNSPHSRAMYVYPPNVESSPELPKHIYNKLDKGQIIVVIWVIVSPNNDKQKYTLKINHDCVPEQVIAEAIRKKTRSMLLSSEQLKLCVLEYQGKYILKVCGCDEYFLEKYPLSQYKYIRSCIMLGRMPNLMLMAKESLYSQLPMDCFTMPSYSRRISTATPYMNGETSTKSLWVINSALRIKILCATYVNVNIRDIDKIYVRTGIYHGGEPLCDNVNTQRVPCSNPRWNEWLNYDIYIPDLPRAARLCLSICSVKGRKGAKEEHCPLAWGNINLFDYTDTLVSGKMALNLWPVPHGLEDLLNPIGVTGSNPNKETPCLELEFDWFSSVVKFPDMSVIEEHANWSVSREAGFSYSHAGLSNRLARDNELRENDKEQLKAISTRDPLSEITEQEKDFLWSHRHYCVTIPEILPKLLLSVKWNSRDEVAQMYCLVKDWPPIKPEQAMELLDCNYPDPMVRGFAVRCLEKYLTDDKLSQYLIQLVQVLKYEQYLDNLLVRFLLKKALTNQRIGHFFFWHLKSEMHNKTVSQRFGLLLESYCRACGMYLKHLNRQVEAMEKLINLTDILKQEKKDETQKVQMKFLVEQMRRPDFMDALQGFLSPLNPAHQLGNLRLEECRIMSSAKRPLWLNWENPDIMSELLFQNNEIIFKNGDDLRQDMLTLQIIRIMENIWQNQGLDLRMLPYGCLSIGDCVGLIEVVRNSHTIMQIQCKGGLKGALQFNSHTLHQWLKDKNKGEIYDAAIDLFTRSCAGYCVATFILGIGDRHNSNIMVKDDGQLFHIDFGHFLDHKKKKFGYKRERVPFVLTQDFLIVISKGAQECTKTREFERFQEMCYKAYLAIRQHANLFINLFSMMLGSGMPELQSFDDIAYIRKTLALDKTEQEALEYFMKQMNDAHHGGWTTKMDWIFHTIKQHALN
Test: Inhibition Assays of p110α/p85α, p110β/p85α, p110δ/p85α, and p110γ
For each record, write down the corresponding IC50.

Field: example entries. Status: answers known.
query.smiles: Cc1cccc2cc(Cn3nc(I)c4c(N)ncnc43)n(C3CCCC3)c(=O)c12
IC50: > 10 µM

query.smiles: Cc1cccc2cc(Cn3nc(-c4ccc(Cl)c(O)c4)c4c(N)ncnc43)n(C3CCCC3)c(=O)c12
IC50: > 10 µM

Value sought for every listed compound: IC50.
1. [2H]c1nc2c(N[C@@H](C)c3cc4cccc(Cl)c4c(=O)n3C3CC3)ncnc2[nH]1
2. Cc1cccc2cc(Cn3nc(-c4ccc(O)cc4)c4c(N)ncnc43)n(-c3ccccc3F)c(=O)c12

Found:
1: < 1 µM; 2: > 10 µM

###

For each record, write down the corresponding IC50.
Molecular target: Phosphatidylinositol 4,5-bisphosphate 3-kinase catalytic subunit gamma isoform (Homo sapiens, UniProt P48736)
Sequence (P48736 whole entry, looked up, canonical isoform): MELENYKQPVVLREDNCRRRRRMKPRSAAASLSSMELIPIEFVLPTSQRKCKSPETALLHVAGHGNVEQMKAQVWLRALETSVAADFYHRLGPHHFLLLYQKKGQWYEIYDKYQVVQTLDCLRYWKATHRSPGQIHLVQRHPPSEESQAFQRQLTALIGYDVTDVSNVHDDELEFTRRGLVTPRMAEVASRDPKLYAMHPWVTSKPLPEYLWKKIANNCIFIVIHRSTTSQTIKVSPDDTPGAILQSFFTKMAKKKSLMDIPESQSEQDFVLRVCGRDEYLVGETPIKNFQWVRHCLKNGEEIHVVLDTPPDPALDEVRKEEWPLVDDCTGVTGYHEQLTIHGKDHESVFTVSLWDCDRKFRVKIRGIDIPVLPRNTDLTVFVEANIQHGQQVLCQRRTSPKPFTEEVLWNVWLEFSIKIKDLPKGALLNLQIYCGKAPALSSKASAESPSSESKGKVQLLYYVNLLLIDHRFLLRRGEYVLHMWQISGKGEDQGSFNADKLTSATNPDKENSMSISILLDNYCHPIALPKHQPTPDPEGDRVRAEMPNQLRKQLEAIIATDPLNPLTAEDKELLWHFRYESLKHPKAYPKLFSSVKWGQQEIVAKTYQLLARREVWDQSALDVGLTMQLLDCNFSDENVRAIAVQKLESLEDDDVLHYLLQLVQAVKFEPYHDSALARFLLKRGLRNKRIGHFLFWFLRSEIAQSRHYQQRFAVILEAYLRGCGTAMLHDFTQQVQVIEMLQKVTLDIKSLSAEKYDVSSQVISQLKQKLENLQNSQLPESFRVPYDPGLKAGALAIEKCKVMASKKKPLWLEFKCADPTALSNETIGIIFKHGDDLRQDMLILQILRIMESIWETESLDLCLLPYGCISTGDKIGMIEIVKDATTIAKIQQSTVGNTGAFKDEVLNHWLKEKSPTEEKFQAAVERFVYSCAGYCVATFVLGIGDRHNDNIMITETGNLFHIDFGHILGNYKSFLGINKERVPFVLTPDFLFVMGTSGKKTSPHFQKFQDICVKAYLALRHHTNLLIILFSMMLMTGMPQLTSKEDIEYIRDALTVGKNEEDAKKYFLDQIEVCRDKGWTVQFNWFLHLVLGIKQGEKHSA
Experiment: Inhibition Assays of p110α/p85α, p110β/p85α, p110δ/p85α, and p110γ

Field: example entries. Status: answers known.
molecule: C[C@H](Nc1ncnc2[nH]cnc12)c1cc2cccc(F)c2c(=O)n1-c1ccc(F)cc1 [US20250170122, Compound 332]
IC50: < 100 nM

molecule: Cc1ccccc1-n1c(Cn2nc(-c3cn[nH]c3)c3c(N)ncnc32)cc2cccc(Cl)c2c1=O [US20250170122, Compound 336]
IC50: < 100 nM

molecule: Cc1ccccc1-n1c(Cn2cnc3c(N)ncnc32)cc2cccc(C)c2c1=O [US20250170122, Compound 5]
IC50: > 10000 nM

molecule: C[C@H](Nc1ncnc2ccccc12)c1cc2cccc(Cl)c2c(=O)n1-c1ccccc1 [US20250170122, Compound 342]
IC50: < 100 nM

molecule: Cc1cccc2cc(Cn3nc(-c4cccc(Cl)c4)c4c(N)ncnc43)n(-c3ccccc3F)c(=O)c12 [US20250170122, Compound 38]
IC50: < 10000 nM

molecule: CNc1ncc(C(F)(F)F)c(N[C@@H](C)c2cc3cccc(Cl)c3c(=O)n2-c2ccccc2)n1 [US20250170122, Compound 354]
IC50: < 100 nM

Value sought for every listed molecule: IC50.
1. C[C@H](Nc1nc(N)nc2ccccc12)c1cc2cccc(Cl)c2c(=O)n1-c1ccccc1 [US20250170122, Compound 359]
2. C[C@H](Nc1ncnc2[nH]cnc12)c1cc2cccc(Cl)c2c(=O)n1-c1cccc(Cl)c1 [US20250170122, Compound 365]
3. Nc1ncnc2c1c(-c1cn[nH]c1)nn2Cc1cc2cccc(Cl)c2c(=O)n1-c1ccccc1 [US20250170122, Compound 338]
4. C[C@H](Nc1ncnc2[nH]cnc12)c1cc2cccc(F)c2c(=O)n1-c1ccccc1 [US20250170122, Compound 330]
5. Cc1cccc2cc(Cn3nc(-c4ccc(O)cc4)c4c(N)ncnc43)n(-c3ccccc3F)c(=O)c12 [US20250170122, Compound 46]
6. CC(=O)Nc1nc2ccc(-c3nn(Cc4cc5cccc(C)c5c(=O)n4-c4ccccc4)c(C)c3CN)cc2s1 [US20250170122, Compound 177]
7. Cc1cccc2cc(Cn3nc(I)c4c(N)ncnc43)n(C3CCCC3)c(=O)c12 [US20250170122, Compound 57]
8. Cc1cccc2cc(Cn3nc(-c4ccc(Cl)c(O)c4)c4c(N)ncnc43)n(C3CCCC3)c(=O)c12 [US20250170122, Compound 71]

Found:
["< 100 nM", "< 100 nM", "< 100 nM", "< 100 nM", "< 1000 nM", "< 100 nM", "< 10000 nM", "< 1000 nM"]

The reported numbers originate from BindingDB's records for patent US20250170122.
